- Tested on: OVCAR-5
- Test name: NCI tumour cell line growth inhibition, 48 h
The source made the active and inactive calls. Rule as the data show it: active = GI50 up to about 1.1 µM and inactive = higher.
Quick list: GI50 per entry.

CC(C)(Br)C(Br)CCC1(C(Br)CBr)CO1 (stereo not given): > 10 µM (inactive)
O=C(CCc1ccc(O)c(O)c1)NCCc1cc(OCc2ccccc2)cc(OCc2ccccc2)c1: 13.1 µM (inactive)
CCOC(=O)CC(=O)N(c1ccc(OC)cc1)C(C(=O)OC)c1ccccc1 (stereo not given): > 100 µM (inactive)

Incoming: Bench note: what GI50 did CCCC1(N)CC(OC)OC(C)C1O (stereo not given) show?
Outgoing: > 100 µM (inactive)

Incoming: Bench note: what GI50 did O=C(O)C1C2CCC(O2)C1C(=O)NCc1cccnc1 (stereo not given) show?
Outgoing: > 100 µM (inactive)

Incoming: Bench note: what GI50 did CC(=O)OCC1OC(n2c(N)c(C#N)c(-c3ccccc3)c(C#N)c2=S)C(OC(C)=O)C(OC(C)=O)C1OC(C)=O (stereo not given) show?
Outgoing: > 100 µM (inactive)

Incoming: Bench note: what GI50 did CC1=NN(C(=O)CC(=O)Nc2cccc(Cl)c2)C(=O)C1/N=N\c1ccc(S(=O)(=O)c2ccc(/N=N/C3C(=O)N(C(=O)CC(=O)Nc4cccc(Cl)c4)N=C3C)cc2)cc1 (stereo not given) show?
Outgoing: > 100 µM (inactive)

Incoming: Bench note: what GI50 did Nc1ccccc1SC(/C=C/NNC1=NN=C(c2ccccc2)C(c2ccccc2)N1)c1ccccc1 (stereo not given) show?
Outgoing: 20.8 µM (inactive)

Incoming: Bench note: what GI50 did O=C(c1ccccc1)C(c1ccccc1)C1(O)C(=O)Nc2ccc(Br)cc21 (stereo not given) show?
Outgoing: > 100 µM (inactive)

Incoming: Bench note: what GI50 did CSc1nc(NC2OCC(OC(C)=O)C(OC(C)=O)C2OC(C)=O)c(/N=C\C=N\c2c(NC3OCC(OC(C)=O)C(OC(C)=O)C3OC(C)=O)nc(SC)[nH]c2=O)c(=O)[nH]1 (stereo not given) show?
Outgoing: > 71.8 µM (inactive)

Incoming: Bench note: what GI50 did CC(=O)OC[C@@]12CC[C@H]3C(C)(C)CCC[C@]3(C)[C@H]1C[C@@H](C1=CC(=O)O[C@H]1O)O2 show?
Outgoing: 19.7 µM (inactive)

Incoming: Bench note: what GI50 did COc1cc(C(O)c2ccc3c(c2)OCO3)cc(OC)c1OC (stereo not given) show?
Outgoing: > 100 µM (inactive)

Incoming: Bench note: what GI50 did NC(=S)N/N=C1/CN(c2ccc(Cl)c(Cl)c2)CC(=O)C1c1nc2ccccc2s1 (stereo not given) show?
Outgoing: > 100 µM (inactive)

Incoming: Bench note: what GI50 did CC1=NC(C)(COC(=O)C2(C)NC(C)(CO)CO2)COC1=O (stereo not given) show?
Outgoing: > 100 µM (inactive)

Incoming: Bench note: what GI50 did COC(=O)C1C=CN(N(C)C)C2=C1C(=O)c1c(O)cccc1C2=O (stereo not given) show?
Outgoing: 2.42 µM (inactive)

Incoming: Bench note: what GI50 did OCC(CCc1c[nH]c2ccccc12)c1c[nH]c2ccccc12 (stereo not given) show?
Outgoing: 17.4 µM (inactive)

Incoming: Bench note: what GI50 did O=C1C=CC(=O)C1(Br)Br show?
Outgoing: 10.7 µM (inactive)

Incoming: Bench note: what GI50 did NC(=O)/C=c1/c2ccccc2n2nc3ccccc3c12 show?
Outgoing: 29.9 µM (inactive)

Incoming: Bench note: what GI50 did CC(C)(C)OC(=O)NC1CCCCC1NC(=O)C(=O)NC1CCCCC1NC(=O)OC(C)(C)C (stereo not given) show?
Outgoing: > 100 µM (inactive)

Incoming: Bench note: what GI50 did CCOC(=O)c1cnc2oc(/C=N/N3CC(CN4CCOCC4)OC3=O)cc2c1O (stereo not given) show?
Outgoing: > 100 µM (inactive)

###

- Tested on: MDA-MB-435
- Test name: NCI tumour cell line growth inhibition, 48 h
Active and inactive are the calls of the source. No stated cut-off is given here; in the data, active = GI50 up to about 1.1 µM and inactive = higher.
Quick list: GI50 per entry.

Some entries whose results are on file:
CS(=O)(=O)OCCCCOS(C)(=O)=O [BUSULFAN]: > 1000 µM (inactive)
NC12CC3CC4C1CC1CC2C(C3)C4(N)C1: > 100 µM (inactive)
Cc1ccc2nc(NC(=O)C(=O)C3C(=O)NC(=S)NC3=O)sc2c1: > 100 µM (inactive)
C/C1=C\CC[C@@]2(C)O[C@@H]2C[C@@H]2[C@H](C/C(C)=C/CC1)OC(=O)[C@]21CO1: 65.8 µM (inactive)

Incoming: Bench note: what GI50 did Cc1cc2ccccc2n2c1nc1ccccc12 show?
Outgoing: > 100 µM (inactive)

Incoming: Bench note: what GI50 did COC(=O)CN1Cc2cc(C)cc(c2O)CN(CC(=O)OC)Cc2cc(C)cc(c2O)CN(CC(=O)OC)Cc2cc(C)cc(c2O)CN(CC(=O)OC)Cc2cc(C)cc(c2O)C1 show?
Outgoing: 26.9 µM (inactive)

Incoming: Bench note: what GI50 did CC12CC(C#N)(C#N)C(C#N)(CO1)C(=N)O2 (stereo not drawn) show?
Outgoing: > 100 µM (inactive)

Incoming: Bench note: what GI50 did CC12O[C@]3([C@H](C(=O)N4CCOC43C)[C@H]1Cl)[C@H]1O[C@H]12 (stereo partly drawn) show?
Outgoing: > 100 µM (inactive)

###

- Test system: UACC-257
- Test name: NCI tumour cell line growth inhibition, 48 h
Active and inactive are the calls of the source. Cut-off read from the data, not from the text of the source: active = GI50 up to about 1.1 µM and inactive = higher.
Assign a class; possible classes are active, inactive

Study these solved cases before continuing.
O=C1N(c2ccccc2)C2(O)C(=O)c3ccccc3C2(O)N1c1ccccc1 (stereo not given): inactive
CC#CC(O)(C(=O)OCCCN(C)C)C1CCCCC1 (stereo not given): inactive
O=[N+]([O-])c1ccc(-n2nc3ccc4c(no[n+]4[O-])c3[n+]2[O-])c([N+](=O)[O-])c1: inactive
CS(=O)(=O)Nc1ccc2c(c1)N(S(C)(=O)=O)CC2COS(C)(=O)=O (stereo not given): inactive
Fc1ccc(C(OCCN2CCC3CCC(C2)N3C/C=C/c2ccco2)c2ccc(F)cc2)cc1 (stereo not given): inactive
Sc1nnc(CNc2ccc(-c3nnc(S)n3-c3ccc(Cl)cc3)cc2)n1-c1ccc(Cl)cc1: inactive
Cc1c(CNc2ccc(Cl)c(Cl)c2Cl)cnc2nc(N)nc(N)c12: active
O=c1oc2c(Cl)cc(Cl)cc2cc1-c1cn2c(n1)sc1ccccc12: inactive

Incoming: Any idea what this test logged for O=C(O)C1(C(=O)O)CC1 ?
Outgoing: inactive

Incoming: Any idea what this test logged for C[C@H]1C2Cc3cc(O)ccc3[C@@]1(C)CCN2CCc1ccc(N)cc1 ?
Outgoing: inactive

###

Quick list: GI50 per entry.
- Test system: MOLT-4
- Test name: NCI tumour cell line growth inhibition, 48 h
The source made the active and inactive calls. No stated cut-off is given here; in the data, active = GI50 up to about 1.1 µM and inactive = higher.

Some entries whose results are on file:
CCC(=O)N(c1ccccc1)C(C)CN1CCC(O)(c2ccccc2)CC1 (centres undefined): > 100 µM (inactive)
Clc1ccc(C[P+]2(c3ccccc3)CCCCC2)cc1.[O-][Cl+3]([O-])([O-])[O-]: 86.5 µM (inactive)
O=c1cc(-c2nc3ccccc3[nH]2)[nH]c2nc(-c3nc4ccccc4[nH]3)cc(-c3ccc(Cl)cc3)c12: 19.4 µM (inactive)
COc1cc(/C=C2\NC(=O)C3Cc4c(OC)c(C)c(OC)c(OC)c4C2N3C)c(OC)c(C)c1OC (centres undefined): 44.2 µM (inactive)
O=C1c2ccccc2S[C@@H](O)[C@@H]2CCCN12: > 100 µM (inactive)

Incoming: Bench note: what GI50 did O=C(O)CCC(NC(=O)c1ccc(Nc2nc3ccccc3nc2-c2cccs2)cc1)C(=O)O (centres undefined) show?
Outgoing: > 100 µM (inactive)

Incoming: Bench note: what GI50 did CN(/N=C/c1ccccc1O)c1ccc2ccccc2n1 show?
Outgoing: 24 µM (inactive)

Incoming: Bench note: what GI50 did O=C(O)c1ccccc1NC(=S)c1ccccc1 show?
Outgoing: 67.5 µM (inactive)

Incoming: Bench note: what GI50 did O=CNc1ccccc1OCCOc1ccccc1NC=O show?
Outgoing: > 100 µM (inactive)

Incoming: Bench note: what GI50 did Cc1ccc(NC(=S)N/N=C2\C(=O)Nc3ccccc32)cc1 show?
Outgoing: > 100 µM (inactive)

Incoming: Bench note: what GI50 did Cc1c(N)nc([C@H](CC(N)=O)NC[C@H](N)C(N)=O)nc1C(=O)N[C@H](C(=O)N[C@H](C)[C@@H](O)CC(=O)N[C@H](C(=O)NC(O[C@@H]1O[C@@H](C)[C@@H](N)[C@@H](O)[C@H]1O)C(O)c1nc(-c2nc(C(=O)NCCC[S+](C)C)cs2)cs1)[C@@H](C)O)[C@H](O[C@@H]1O[C@@H](CO)[C@@H](O)[C@H](O)[C@@H]1O[C@H]1O[C@H](CO)[C@@H](O)[C@H](OC(N)=O)[C@@H]1O)c1c[nH]cn1 (some centres undefined) show?
Outgoing: 38.6 µM (inactive)
